test details: plasma levels and half-life after clinical dosing with tazarotene
Assay type: in vivo
test parameters: human, plasma; read-out: effective half-life in plasma
measure name: half-life

smiles input	measure name	observed value
CCOC(=O)c1ccc(C#Cc2ccc3c(c2)C(C)(C)CCS3)nc1	half-life	7 to 12 h
